# TARGET_SYSTEM: KCNQ4 (Homo sapiens)
# PROTOCOL_SUMMARY: TEVC of homomeric KCNQ4 expressed in Xenopus oocytes
# Format: cell-based
ENDPOINT: effect on KCNQ4 (in words)

| COMPOUND | RECORDED_RESULT |
| --- | --- |
| NCC(=O)O [glycine, reference compound] | unable to open |
| NCCCC(=O)O [GABA, γ-aminobutyric acid, reference compound] | unable to open |

====

# TARGET_SYSTEM: KCNQ1/KCNE1 (Homo sapiens, UniProt P51787)
# PROTOCOL_SUMMARY: TEVC of KCNQ1/KCNE1 channels
# CONDITION_CONTEXT: read-out: EC50 of KCNQ1/KCNE1 activation
ENDPOINT: pEC50
Recall that pEC50 is obtained by taking minus log10 of the concentration measured in molar.

Q: I'd like to know its pEC50. The compound in question is CCCCCCCCC/C=C/C=O [(E)-2-dodecenal]
Ans: 6.59

====

# TARGET_SYSTEM: KCNQ3* (KCNQ3-A315T) (Homo sapiens, UniProt O43525, A315T)
# PROTOCOL_SUMMARY: TEVC of homomeric KCNQ3* expressed in Xenopus oocytes
# Type: cell-based
# CONDITION_CONTEXT: −60 mV; read-out: EC50 of KCNQ3* activation
ENDPOINT: pEC50
On this scale, pEC50 is minus log10 of a concentration expressed in M (mol/L).

Q: Please look up its pEC50: CC(=O)c1c(O)c(C)c(O)c(Cc2c(O)c3c(c(C(=O)/C=C/c4ccccc4)c2O)OC(C)(C)C=C3)c1O [MTX, mallotoxin]
Ans: 4.89

====

# TARGET_SYSTEM: UniProt:Q9NR82
# PROTOCOL_SUMMARY: TEVC of homomeric KCNQ5 expressed in Xenopus oocytes
# Format: cell-based
# CONDITION_CONTEXT: Example 4; read-out: EC50 of KCNQ5 activation
ENDPOINT: EC50
Please provide the amount together with its unit, number first.

Q: Field request: EC50 | item: CS(=O)(=O)N(CC(=O)O)c1cccc(F)c1 [3FMSG]
Ans: 171 nM

====

# TARGET_SYSTEM: KCNQ2/3 (Homo sapiens, UniProt O43525+O43526)
# PROTOCOL_SUMMARY: TEVC of heteromeric KCNQ2/3 channels expressed in Xenopus laevis oocytes
# Assay type: cell-based
# CONDITION_CONTEXT: current at −60 mV; read-out: EC50 of KCNQ2/3 activation
ENDPOINT: pEC50
pEC50 is defined as minus the log10 of a concentration measured in mol/L.

Q: Which measured pEC50 value corresponds to CC(=O)c1c(O)c(C)c(O)c(Cc2c(O)c3c(c(C(=O)/C=C/c4ccccc4)c2O)OC(C)(C)C=C3)c1O ?
Ans: 4.94

====

# TARGET_SYSTEM: KCNQ2 (Homo sapiens, UniProt O43526)
# PROTOCOL_SUMMARY: TEVC of homomeric KCNQ2 expressed in Xenopus oocytes
# Type: cell-based
# CONDITION_CONTEXT: read-out: EC50 of KCNQ2 activation by (E)-2-dodecenal
# Description: cRNA transcripts encoding human KCNA1, KCNQ1, KCNQ2, KCNQ3, KCNQ4, or KCNQ5 were generated by in vitro transcription using the T7 polymerase message machine kit (Thermo Fisher Scientific), after vector linearization, from cDNA sub-cloned into plasmids incorporating X. laevis β-globin 5′ and 3′ UTRs flanking the coding region to enhance translation and cRNA stability. cRNA was quantified by spectrophotometry. […]
ENDPOINT: EC50 (nM)
# unit: nM | format: bare number

Q: # returns recorded EC50 (system: KCNQ2 (Homo sapiens, UniProt O43526)) for CCCCCCCCC/C=C/C=O [(E)-2-dodecenal]
Ans: 60

Cited source: patent US12268683B2
